Target: M1 muscarinic receptor (Homo sapiens, UniProt P11229)
Construct: expressed in transfected cells; host or cells: CHO (M1-CHO)
Sequence (P11229 1-460): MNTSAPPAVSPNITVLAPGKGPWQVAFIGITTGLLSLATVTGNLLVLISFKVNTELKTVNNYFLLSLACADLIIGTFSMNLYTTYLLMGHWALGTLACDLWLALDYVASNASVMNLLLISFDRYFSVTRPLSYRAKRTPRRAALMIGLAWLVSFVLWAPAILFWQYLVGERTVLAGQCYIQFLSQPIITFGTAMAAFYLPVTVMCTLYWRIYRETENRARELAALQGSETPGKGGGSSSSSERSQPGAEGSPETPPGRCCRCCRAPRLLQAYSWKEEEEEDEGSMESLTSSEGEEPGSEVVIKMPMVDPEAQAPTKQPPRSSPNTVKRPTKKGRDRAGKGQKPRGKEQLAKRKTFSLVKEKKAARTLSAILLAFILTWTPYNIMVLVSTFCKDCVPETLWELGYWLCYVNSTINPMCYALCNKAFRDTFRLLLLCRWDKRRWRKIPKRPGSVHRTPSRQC
Assay: Functional mobilization of intracellular calcium (FLIPR) in CHO cells expressing M1
Assay type: cell-based
Settings: CHO; 100% efficacy = maximum response obtained with the Carbachol control
# Emax listing for each entry below

CHEMICAL_STRING | EXPERIMENTAL_TARGET | EXPERIMENTAL_RESULT
COC(=O)CCCN1CCC2(CC1)C[C@H](NC(C)=O)c1ccccc12 | M1 muscarinic receptor (Homo sapiens, UniProt P11229) | 25 to 100%
CC/C=C\CCCCCCN1CCC2(CC1)C[C@H](NC(C)=O)c1ccccc12 | M1 muscarinic receptor (Homo sapiens, UniProt P11229) | 25 to 100%
COC(=O)CN1CCC2(CC1)C[C@H](NC(C)=O)c1ccccc12 | M1 muscarinic receptor (Homo sapiens, UniProt P11229) | 25 to 100%

# input for lookup
Sure, the documented Emax for `CCOC(=O)N(C)[C@H]1CCC2(CCN(CCC(C)(C)C)CC2)c2ccccc21` is < 25%

====

Target: UniProtKB P11229
Sequence (P11229 1-460): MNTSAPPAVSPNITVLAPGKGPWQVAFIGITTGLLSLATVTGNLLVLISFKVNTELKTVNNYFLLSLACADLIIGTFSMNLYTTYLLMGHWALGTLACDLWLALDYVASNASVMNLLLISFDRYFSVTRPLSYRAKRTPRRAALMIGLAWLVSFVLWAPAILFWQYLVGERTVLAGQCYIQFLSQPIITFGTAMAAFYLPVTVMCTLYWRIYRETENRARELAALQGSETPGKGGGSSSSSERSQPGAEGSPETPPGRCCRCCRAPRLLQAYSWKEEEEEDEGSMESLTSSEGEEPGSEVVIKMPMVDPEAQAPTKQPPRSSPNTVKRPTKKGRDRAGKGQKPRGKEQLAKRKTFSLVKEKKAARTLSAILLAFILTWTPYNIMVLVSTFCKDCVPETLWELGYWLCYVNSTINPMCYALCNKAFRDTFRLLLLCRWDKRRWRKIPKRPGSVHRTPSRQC
Assay: Functional mobilization of intracellular calcium (FLIPR) in CHO cells expressing M1
Conditions: CHO cells expressing M1, FLIPR calcium
# EC50 listing for each entry below

Look over these answered cases.
COMPOUND | EC50
CC(=O)N[C@H](C)C(=O)N[C@H]1CCC2(CCN(CCC(C)(C)C)CC2)c2cc(F)ccc21 [compound 46] | < 2 µM
CC(=O)N1CCC[C@H]1C(=O)N[C@@H]1CCC2(CCN(CCC(C)(C)C)CC2)c2ccccc21 [compound 84] | 2 to 5 µM

# input for lookup
Sure, the documented EC50 for CC(=O)N[C@H]1CCC2(CCN(CCC(C)CC(C)(C)C)CC2)c2ccccc21 (stereo partly drawn) [compound 45] is < 2 µM

====

# Emax listing for each entry below
Target: M2 muscarinic receptor (Homo sapiens)
Construct: expressed in transfected cells; host or cells: CHO (M2-CHO)
Test: Functional mobilization of intracellular calcium (FLIPR) in CHO cells expressing M2
Assay type: cell-based
Conditions: CHO; 100% = maximum response obtained with the Carbachol control; read-out: M2 Efficacy

Look over these answered cases.
COMPOUND | EXPERIMENTAL_TARGET | Emax
CC(C)(C)CCN1CCC2(CC[C@H](NC(=O)CC3CCCC3=O)c3ccc(F)cc32)CC1 (stereo partly drawn) | M2 muscarinic receptor (Homo sapiens) | < 25%
CC(C)(C)CCN1CCC2(CC[C@H](N3CCCCC3=O)c3ccccc32)CC1 | M2 muscarinic receptor (Homo sapiens) | < 25%
CCN(C(=O)CCC(C)=O)[C@H]1CCC2(CCN(CCC(C)(C)C)CC2)c2ccccc21 | M2 muscarinic receptor (Homo sapiens) | < 25%
CC(C)(C)CCN1CCC2(CC1)CC(F)(F)C(O)c1ccccc12 (stereo not drawn) | M2 muscarinic receptor (Homo sapiens) | 25 to 100%

Sure, the documented Emax for `CC(C)C[C@@H](C(=O)N[C@H]1CCC2(CCN(CCC(C)(C)C)CC2)c2ccccc21)N1CCCC1=O` is < 25%

Sure, the documented Emax for `Cc1cc(C(=O)N[C@H]2CCC3(CCN(CCC(C)(C)C)CC3)c3cc(F)ccc32)nn1C` is 25 to 100%

Sure, the documented Emax for `CC(=O)N(C)CCC(=O)N[C@H]1CCC2(CCN(CCC(C)(C)C)CC2)c2ccccc21` is 25 to 100%

====

# Emax listing for each entry below
Target: M2 muscarinic receptor (Homo sapiens, UniProt P08172)
Construct: expressed in transfected cells; host or cells: CHO (M2-CHO)
Sequence (P08172 1-466): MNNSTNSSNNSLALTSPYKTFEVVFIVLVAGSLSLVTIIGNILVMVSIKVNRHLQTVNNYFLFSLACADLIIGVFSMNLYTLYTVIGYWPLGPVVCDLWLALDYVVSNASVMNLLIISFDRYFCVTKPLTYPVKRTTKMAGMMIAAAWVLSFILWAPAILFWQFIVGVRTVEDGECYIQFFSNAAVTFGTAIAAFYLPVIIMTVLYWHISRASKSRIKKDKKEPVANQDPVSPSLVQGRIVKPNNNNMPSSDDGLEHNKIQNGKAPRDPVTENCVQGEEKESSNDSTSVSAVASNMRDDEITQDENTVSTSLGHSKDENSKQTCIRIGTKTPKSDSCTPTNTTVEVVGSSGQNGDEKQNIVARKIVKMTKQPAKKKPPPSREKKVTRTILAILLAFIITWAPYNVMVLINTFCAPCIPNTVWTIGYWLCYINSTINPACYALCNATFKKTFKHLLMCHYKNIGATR
Experiment: Functional mobilization of intracellular calcium (FLIPR) in CHO cells expressing M2
Format: cell-based
Settings: CHO; 100% = maximum response obtained with the Carbachol control; read-out: M2 Efficacy

Look over these answered cases.
COMPOUND | Emax
CCN(C(=O)C1CCN(C(=O)OC)CC1)[C@H]1CCC2(CCN(CCC(C)(C)C)CC2)c2ccccc21 [compound 166] | < 25%
CC(=O)N[C@H](C)C(=O)N[C@@H]1CCC2(CCN(CCC(C)(C)C)CC2)c2cc(F)ccc21 [compound 163] | 25 to 100%
CCC(=O)N(C)[C@H]1CCC2(CCN(CCC(C)(C)C)CC2)c2ccccc21 [compound 164] | < 25%
CC(C)(C)CCN1CCC2(CC[C@H](NC(=O)C3CCCO3)c3ccc(F)cc32)CC1 (some centres unmarked) [compound 27] | < 25%

# input for lookup
Sure, the documented Emax for CC(=O)N[C@H]1CCC2(CCN(CCC(C)CC(C)(C)C)CC2)c2ccccc21 (some centres unmarked) [compound 45] is < 25%
